# reported remaining at 6 h, 10 μM; entries follow
PROTOCOL_SUMMARY: physchem
CONDITION: simulated gi fluid, pH 6.5, FaSSIF Stability, % remaining, 6h
Write the value in % as a bare number.

MOLECULE	remaining at 6 h, 10 μM [%]
O=C(O)C1=C(CSc2cccc[n+]2[O-])CS[C@@H]2[C@H](NC(=O)/C(=N\Oc3ccccc3)c3ccco3)C(=O)N12	98.7

Entry CN(C)C(=S)SCC1=C(C(=O)O)N2C(=O)[C@@H](NC(=O)Cc3cccs3)[C@H]2SC1 , remaining at 6 h, 10 μM reported as 85.3

Entry O=C(CCCC(NC(=O)c1ccc(Cl)cc1Cl)C(=O)O)N[C@@H]1C(=O)N2C(C(=O)O)=C(CSc3cccc[n+]3[O-])CS[C@H]12 (stereo partly shown) , remaining at 6 h, 10 μM reported as 111

Entry O=C(Cc1ccc(C2=NCCN2)cc1)N[C@@H]1C(=O)N2C(C(=O)O)=C(CSc3nncs3)CS[C@H]12 , remaining at 6 h, 10 μM reported as 94.7

###

PROTOCOL_SUMMARY: Caco-2 permeability / efflux transporter substrate
CONDITION: human, Caco-2, pH 7.4
# reported Papp A→B at 120 min, 3 μM; entries follow

COMPOUND	RESULT
C[C@@H](O)[C@H]1C(=O)N2C(C(=O)O)=C(S[C@@H]3CN[C@H](C(=O)Nc4cccc(C(=O)O)c4)C3)[C@H](C)[C@H]12 [Ertapenem, reference compound]	< 0.23 ×10⁻⁶ cm/s

Next item in the queue.
Entry C[C@@H](O)[C@H]1C(=O)N2C(C(=O)O)=C(S[C@@H]3CN[C@H](C(=O)N(C)C)C3)[C@H](C)[C@H]12 [Meropenem, reference compound] , Papp A→B at 120 min, 3 μM reported as < 0.26 ×10⁻⁶ cm/s

###

PROTOCOL_SUMMARY: physchem
CONDITION: simulated gi fluid, pH 6.5, FaSSIF Stability, % remaining, 24h
QUANTITY: remaining at 24 h, 10 μM
Reply with a number, then the unit it belongs to.

Entry CN(C)C(=S)SCC1=C(C(=O)O)N2C(=O)[C@@H](NC(=O)Cc3cccs3)[C@H]2SC1 , remaining at 24 h, 10 μM reported as 90.9%

Entry O=C(CCCC(NC(=O)c1ccc(Cl)cc1Cl)C(=O)O)N[C@@H]1C(=O)N2C(C(=O)O)=C(CSc3cccc[n+]3[O-])CS[C@H]12 (some centres unmarked) , remaining at 24 h, 10 μM reported as 106%

Entry O=C(Cc1ccc(C2=NCCN2)cc1)N[C@@H]1C(=O)N2C(C(=O)O)=C(CSc3nncs3)CS[C@H]12 , remaining at 24 h, 10 μM reported as 84.2%

Entry O=C(Cc1cccs1)N[C@@H]1C(=O)N2C(C(=O)O)=C(CSc3cccc[n+]3[O-])CS[C@H]12 , remaining at 24 h, 10 μM reported as 114%

Entry O=C(O)C1=C(CSc2cccc[n+]2[O-])CS[C@@H]2[C@H](NC(=O)/C(=N\Oc3ccccc3)c3ccco3)C(=O)N12 , remaining at 24 h, 10 μM reported as 98.5%

###

CONDITION: female, 129sv DHP-1 knockout, mouse, in vivo
QUANTITY: Tlast (h)
Write the value in h as a bare number.

Here are 2 compounds together with their reported answers.
COMPOUND	MEASURED_NUMBER
CN(C)C(=S)SCC1=C(C(=O)O)N2C(=O)[C@@H](NC(=O)Cc3cccs3)[C@H]2SC1	6.0
O=C(Cc1ccc(C2=NCCN2)cc1)N[C@@H]1C(=O)N2C(C(=O)O)=C(CSc3nncs3)CS[C@H]12	6.0

Entry NC(C(=O)N[C@@H]1C(=O)N2C(C(=O)O)=C(CSc3cccc[n+]3[O-])CS[C@H]12)c1ccc(O)cc1 (some centres unmarked) , Tlast reported as 3.0

Entry O=C(O)C1=C(CSc2cccc[n+]2[O-])CS[C@@H]2[C@H](NC(=O)/C(=N\Oc3ccccc3)c3ccco3)C(=O)N12 , Tlast reported as 6.0

Entry O=C(Cc1cccs1)N[C@@H]1C(=O)N2C(C(=O)O)=C(CSc3cccc[n+]3[O-])CS[C@H]12 , Tlast reported as 3.0

Entry C=CC1=C(C(=O)O)N2C(=O)[C@@H](NC(=O)/C(=N\O)c3csc(N)n3)[C@H]2SC1 [Cefdinir, reference compound] , Tlast reported as 1.0

Entry C[C@@H](O)[C@H]1C(=O)N2C(C(=O)O)=C(S[C@@H]3CN[C@H](C(=O)N(C)C)C3)[C@H](C)[C@H]12 [Meropenem, reference compound] , Tlast reported as 1.0

Entry O=C(CCCC(NC(=O)c1ccc(Cl)cc1Cl)C(=O)O)N[C@@H]1C(=O)N2C(C(=O)O)=C(CSc3cccc[n+]3[O-])CS[C@H]12 (some centres unmarked) , Tlast reported as 3.0

Taken from paper PMC8922279.
